Molecular target: T1, 4H4073-bH
T1 chain: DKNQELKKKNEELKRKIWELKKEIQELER
Test: two-hybrid library CCNG1;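 note: natural log of median RNA to DNA barcode read ratio; higher means stronger binding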
Please enter MET where interaction score is greater than or equal to -0.2, and NOT MET where it is lower.

1. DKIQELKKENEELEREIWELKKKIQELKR [4H2702-bH] | MET
2. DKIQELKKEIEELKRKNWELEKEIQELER [4H2673-bH] | MET
3. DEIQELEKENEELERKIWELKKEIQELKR [4H170-bH] | MET

Could you please find out whether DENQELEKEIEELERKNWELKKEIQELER [4H1081-bH] has interaction score that meets -0.2 or exceeds it?
NOT MET

Ok, now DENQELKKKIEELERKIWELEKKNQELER [4H1831-bH]
NOT MET

Then this binder: DKNQELKKKNEELKRKIWELKKEIQELER [4H4073-bH]
NOT MET

Same for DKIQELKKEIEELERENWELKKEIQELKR [4H2586-bH]
MET
